Assay: Inhibition of 20s immunoproteasome beta5 chymotrypsin-like activity in human spleen using Suc-Leu-Leu-Val-Tyr-AMC as substrate after 10 mins by fluorescence assay
Below, each entry is listed with its recorded Ki.
All answers are understood in µM, so give the number only.

Example entries begin here.
COc1ccc(/C=C2\NC(=S)N(c3ccccc3)C2=O)cc1 10.9
COc1cc(/C=C2\NC(=S)N(c3ccccc3)C2=O)ccc1O 11.5
COc1ccc(/C=C2\NC(=S)N(c3ccccc3)C2=O)cc1O 2.35

Request: Fill blank: measured Ki of the molecule `COc1ccc(/C=C2\NC(=S)N(c3ccccc3)C2=O)cc1OC` is ____.
Result: 2.01
